Measured IC50 accompanies every entry in the list below.
Tested on: U-937
measurement.notes: Antiproliferative activity against human U-937 cells assessed as cell death measured after 72 hrs by resazurin dye based assay
Assay type: functional
experimental.setup: U-937, 72 h
Response body: numeric value in nM, unit text excluded.

Some solved entries appear below for comparison.
compound | assayed.target | readout.name | measure.unit | endpoint.value
Cc1n[nH]c2ccc3nc(-c4c[nH]nc4C(F)(F)F)c4c(c3c12)CCCC4 | U-937 | IC50 | nM | 2880
OCc1n[nH]c2ccc3nc(-c4c[nH]nc4C(F)(F)F)c4c(c3c12)CCCC4 | U-937 | IC50 | nM | 4820
Cc1n[nH]c2cc(F)c3nc(-c4c[nH]nc4C(F)(F)F)c4c(c3c12)CCCC4 | U-937 | IC50 | nM | 2580
Fc1cc2[nH]ncc2c2c3c(c(-c4cn[nH]c4)nc12)CCCC3 | U-937 | IC50 | nM | 3170

The recorded IC50 for Fc1cc2[nH]ncc2c2c3c(c(-c4c[nH]nc4C(F)(F)F)nc12)CCCC3 is 2240

The recorded IC50 for Fc1cc2[nH]ncc2c2c3c(c(-c4c[nH]nc4C(F)(F)F)nc12)C1CCC3C1 (stereo unspecified) is 2240

====

assayed.target: CDK2/Cyclin A1 (Homo sapiens)
Response field label takes true when IC50 is strictly below 0.3 µM and false in all other cases.

molecule | cat
CN1CCN(CC#Cc2n[nH]c3ccc4nc(-c5c[nH]nc5C(F)(F)F)c5c(c4c23)CCCC5)CC1 | false
Cc1n[nH]cc1-c1nc2c(F)cc3[nH]ncc3c2c2c1CCCC2 | true
Fc1ccc(-c2cc(-c3c[nH]nc3C(F)(F)F)nc3ccc4[nH]ncc4c23)cc1Cl | false

Decide: IC50 of Cn1cc(-c2nc3ccc4[nH]ncc4c3c3c2CCCC3)c(C2CC2)n1 strictly below 0.3 µM? false

Decide: IC50 of Fc1cc(F)cc(-c2cc(-c3c[nH]nc3C(F)(F)F)nc3ccc4[nH]ncc4c23)c1 strictly below 0.3 µM? false

Decide: IC50 of Cn1ncc2c3c4c(c(-c5c[nH]nc5C(F)(F)F)nc3ccc21)CCCC4 strictly below 0.3 µM? false

Decide: IC50 of Cc1n[nH]c(C)c1-c1nc2ccc3[nH]ncc3c2c2c1CCCC2 strictly below 0.3 µM? true

Decide: IC50 of CCc1c(C)c(-c2c[nH]nc2C(F)(F)F)nc2ccc3[nH]ncc3c12 strictly below 0.3 µM? true

Decide: IC50 of CC(=O)NC1CCc2c(c(-c3c[nH]nc3C(F)(F)F)nc3ccc4[nH]ncc4c23)C1 (stereo not given) strictly below 0.3 µM? false

Decide: IC50 of FC(F)(F)c1ccc(-c2cc(-c3c[nH]nc3C(F)(F)F)nc3ccc4[nH]ncc4c23)cc1 strictly below 0.3 µM? false

Decide: IC50 of CC(C)c1n[nH]cc1-c1nc2ccc3[nH]ncc3c2c2c1CCCC2 strictly below 0.3 µM? true

Decide: IC50 of Fc1n[nH]c2ccc3nc(-c4c[nH]nc4C(F)(F)F)c4c(c3c12)CCCC4 strictly below 0.3 µM? true

Decide: IC50 of OCc1n[nH]c2ccc3nc(-c4c[nH]nc4C(F)(F)F)c4c(c3c12)CCCC4 strictly below 0.3 µM? true

Decide: IC50 of FC(F)(F)c1n[nH]cc1-c1nc2ccc3[nH]nnc3c2c2c1CCCC2 strictly below 0.3 µM? false

Decide: IC50 of Cc1n[nH]c2ccc3nc(-c4c[nH]nc4C(F)(F)F)c4c(c3c12)CCC(N)C4 (stereo not given) strictly below 0.3 µM? false

Decide: IC50 of CN1CCN(C2CCc3c(c(-c4c[nH]nc4C(F)(F)F)nc4ccc5[nH]ncc5c34)C2)CC1 (stereo not given) strictly below 0.3 µM? true

Decide: IC50 of N#Cc1n[nH]c2ccc3nc(-c4c[nH]nc4C(F)(F)F)c4c(c3c12)CCCC4 strictly below 0.3 µM? false

The origin of these recorded values is ChEMBL document CHEMBL4834472.
